Test system: a variety of test species
Test: Pre-emergence herbicidal activity (glasshouse, sprayed one day after sowing, evaluated after 13 days)
Format: in vivo
Settings: ZEAMX, application pre-emergence, rate 1000 g/Ha, scale 0-5
measure: Pre-emergence herbicidal damage score, ZEAMX

| compound | measurement |
| --- | --- |
| C=CCNC1=C(Cl)C(=O)N(c2cc(C(C)(C)C)on2)C1O (stereo not shown) | 2 |
| CCCC(C)(C)c1cc(N2C(=O)C(Cl)=C(C)C2O)no1 (stereo not shown) | 1 |
| COC1=C(Br)C(=O)N(c2cc(C(C)(C)C)on2)C1O (stereo not shown) | 1 |
| CCCC1=C(Cl)C(=O)N(c2noc(C)c2C#N)C1O (stereo not shown) | 1 |
| CCC(C)(C)c1onc(N2C(=O)C(C)=C(OC)C2O)c1C#N (stereo not shown) | 2 |
| CCCC1=C(Cl)C(=O)N(c2cc(C(C)(C)C#N)on2)C1O (stereo not shown) | 2 |
| COCCNC1=C(Cl)C(=O)N(c2cc(C(C)(C)C)on2)C1O (stereo not shown) | 2 |
| COC1=C(C)C(O)N(c2cc(C(C)(C)C)on2)C1=O (stereo not shown) [D1] | 2 |
| CC(C)(C)c1cc(N2C(=O)C(Cl)=C(NC3CCC3)C2O)no1 (stereo not shown) | 0 |
| CCC(=O)OC1C(C)=C(Cl)C(=O)N1c1cc(C(C)(CC)CC#N)on1 (stereo not shown) | 3 |
| COC1=C(OC)C(O)N(c2cc(C(C)(C)C)on2)C1=O (stereo not shown) | 2 |
| CC1=C(Br)C(=O)N(c2noc(C(C)(C)C)c2C#N)C1O (stereo not shown) | 3 |
| CC(C)=CCCc1cc(N2C(=O)C(Cl)=C(C)C2O)no1 (stereo not shown) | 0 |
| CCC(C)(C)c1onc(N2C(=O)C(OC)=C(C)C2O)c1C#N (stereo not shown) | 2 |
| CC1=C(Cl)C(=O)N(c2noc(C(C)(C)C)c2Br)C1O (stereo not shown) | 3 |
| CCC(C)(C)c1cc(N2C(=O)C(Cl)=C(C)C2O)no1 (stereo not shown) | 1 |
| COC1=C(C)C(=O)N(c2cc(C)on2)C1O (stereo not shown) | 1 |
| CC1=C(Cl)C(=O)N(c2cc(C(C)c3ccccc3)on2)C1O (stereo not shown) | 1 |
| COC1=C(C)C(O)N(c2noc(C(C)C)c2C#N)C1=O (stereo not shown) | 2 |
| CC1=C(Cl)C(=O)N(c2noc(C(C)(C)C)c2C#N)C1OS(C)(=O)=O (stereo not shown) | 3 |
| COC1=C(C)C(=O)N(c2noc(C(C)(C)C)c2C#N)C1O (stereo not shown) | 4 |
| COc1ccc(OC(=O)OC2C(C)=C(Cl)C(=O)N2c2cc(C(C)(C)C)on2)cc1 (stereo not shown) | 1 |

----------
measure: melting point

| compound | measure | measurement |
| --- | --- | --- |
| CC1=C(Cl)C(=O)N(c2cc(C(C)(C)C)on2)C1OC(=O)Oc1ccccc1 (stereo not shown) [A84] | melting point | 113 to 127 °C |
| C=CCOCC(C)(C)c1cc(N2C(=O)C(Cl)=C(C)C2O)no1 (stereo not shown) [A33] | melting point | 66 to 68 °C |
| CCOC1=C(C)C(O)N(c2cc(C(C)(C)C#N)on2)C1=O (stereo not shown) [D6] | melting point | 90 to 92 °C |
| CCC(C)(C)c1onc(N2C(=O)C(Cl)=C(C)C2O)c1C#N (stereo not shown) [A40] | melting point | 166 to 168 °C |
| CCCCC(C)(C)c1cc(N2C(=O)C(Cl)=C(C)C2O)no1 (stereo not shown) [A38] | melting point | 75 to 77 °C |
| CC1=C(Cl)C(=O)N(c2noc(C(C)(C)C)c2Br)C1O (stereo not shown) [A23] | melting point | 158 to 160 °C |
| CCCC1=C(Br)C(=O)N(c2cc(C(C)(C)C#N)on2)C1O (stereo not shown) [A52] | melting point | 80 to 82 °C |
| CC1=C(Br)C(=O)N(c2cc(C(C)(C)C#N)on2)C1O (stereo not shown) [A53] | melting point | 138 to 140 °C |
| CCC1=C(Br)C(=O)N(c2noc(C(C)(C)C)c2C#N)C1O (stereo not shown) [A55] | melting point | 138 to 140 °C |
| CC1=C(Cl)C(=O)N(c2noc(C(C)C)c2C#N)C1 [A103] | melting point | 112 to 114 °C |
| CC(=O)OC1C(C)=C(Cl)C(=O)N1c1noc(C(C)(C)C)c1C#N (stereo not shown) [A94] | melting point | 130 to 132 °C |
| CCC(C)(CC)c1cc(N2C(=O)C(Cl)=C(C)C2O)no1 (stereo not shown) [A43] | melting point | 104 to 106 °C |
| COC1=C(C)C(O)N(c2noc(C(C)C)c2C#N)C1=O (stereo not shown) [D3] | melting point | 99 to 101 °C |
| CC1=C(Br)C(=O)N(c2noc(C(C)(C)C)c2C#N)C1O (stereo not shown) [A50] | melting point | 182 to 184 °C |
| COC1=C(C)C(=O)N(c2noc(C(C)C)c2C#N)C1O (stereo not shown) [G4] | melting point | 133 to 135 °C |
| CC1=C(Cl)C(=O)N(c2cc(C3CCCCC3)on2)C1O (stereo not shown) [A25] | melting point | 141 to 143 °C |
| CCC1=C(Cl)C(=O)N(c2noc(C(C)(C)C)c2C#N)C1O (stereo not shown) [A58] | melting point | 134 to 136 °C |
| CC1=C(Cl)C(=O)N(c2cc(C(C)(C)C)on2)C1 [A101] | melting point | 138 to 139 °C |
| CCCC1=C(Br)C(=O)N(c2noc(C(C)(C)C)c2C#N)C1OC(=O)CC (stereo not shown) [A73] | melting point | 78 to 80 °C |
| CCC(C)(C)c1onc(N2C(=O)C(C)=C(OC)C2O)c1C#N (stereo not shown) [G5] | melting point | 122 to 124 °C |
| CCOCC(C)(C)c1cc(N2C(=O)C(Cl)=C(C)C2O)no1 (stereo not shown) [A34] | melting point | 99 to 101 °C |
| CC1=C(Cl)C(=O)N(c2noc(C(C)(C)C)c2C)C1O (stereo not shown) [A20] | melting point | 134 to 136 °C |
| CC(C)=CCCc1cc(N2C(=O)C(Cl)=C(C)C2O)no1 (stereo not shown) [A35] | melting point | 72 to 74 °C |
| CC1=C(Cl)C(=O)N(c2cc(C(C)(C)CO)on2)C1O (stereo not shown) [A39] | melting point | 130 to 132 °C |
| CCc1onc(N2C(=O)C(Cl)=C(C)C2O)c1C#N (stereo not shown) [A71] | melting point | 95 to 97 °C |
| C=CC(C)(C)c1onc(N2C(=O)C(Cl)=C(C)C2O)c1C#N (stereo not shown) [A66] | melting point | 150 to 152 °C |
| COC1=C(C)CN(c2noc(C(C)C)c2C#N)C1=O [D10] | melting point | 131 to 133 °C |
| CC1=C(Cl)C(=O)N(c2cc(C(C)c3ccccc3)on2)C1O (stereo not shown) [A30] | melting point | 118 to 120 °C |
| C=CC(C)(C)c1cc(N2C(=O)C(Cl)=C(C)C2O)no1 (stereo not shown) [A41] | melting point | 114 to 116 °C |
| CC1=C(Cl)C(=O)N(c2cc(C(C)(C)C#N)on2)C1O (stereo not shown) [A42] | melting point | 145 to 147 °C |
| CC1=C(Cl)C(=O)N(c2noc(C(C)C)c2C#N)C1O (stereo not shown) [A44] | melting point | 117 to 119 °C |
| CC1=C(Cl)C(=O)N(c2cc(C(C)(C)C)on2)C1O (stereo not shown) [A2] | melting point | 156 to 158 °C |
| CC(C)(C)c1cc(N2C(=O)C(Cl)=C(NC3CC3)C2O)no1 (stereo not shown) [C8] | melting point | 179 to 180 °C |
| CC1=C(Cl)C(=O)N(c2noc(C(C)(C)C)c2F)C1O (stereo not shown) [A19] | melting point | 98 to 100 °C |
| COC1=C(C)C(O)N(c2cc(C(C)(C)C)on2)C1=O (stereo not shown) [D1] | melting point | 82 to 95 °C |
| COC1=C(C)C(OC(C)=O)N(c2cc(C(C)(C)C)on2)C1=O (stereo not shown) [D7] | melting point | 118 to 124 °C |
| CC1=C(Cl)C(=O)N(c2cc(C(C)(C)CC#N)on2)C1O (stereo not shown) [A72] | melting point | 103 to 105 °C |
| CCC(C)(CC)c1onc(N2C(=O)C(Cl)=C(C)C2O)c1C#N (stereo not shown) [A45] | melting point | 129 to 130 °C |
| CCOC(C)(C)CCCc1cc(N2C(=O)C(Cl)=C(C)C2O)no1 (stereo not shown) [A36] | melting point | 110 to 112 °C |
| COC1=C(C)C(O)N(c2cc(C(C)(C)C#N)on2)C1=O (stereo not shown) [D4] | melting point | 123 to 125 °C |
| CCCCC(C)(C)c1onc(N2C(=O)C(Cl)=C(C)C2O)c1C#N (stereo not shown) [A47] | melting point | 99 to 101 °C |
| CC1=C(Cl)C(=O)N(c2cc(C(C)(C)C(N)=O)on2)C1O (stereo not shown) [A67] | melting point | 169 to 171 °C |
| CCCC1=C(Cl)C(=O)N(c2noc(C(C)(C)C)c2C#N)C1OC(=O)CC (stereo not shown) [A100] | melting point | 69 to 71 °C |
